Molecular target: bovine spleen Cathepsin B (Bos taurus)
Construct: bovine spleen Cathepsin B (SigmaAldrich C6286, ≥10 units/mg protein); purchased SigmaAldrich C6286; host or cells: bovine spleen (tissue-derived)
Experiment: Cathepsin B cleavage assay (UHPLC-HRMS Orbitrap analysis)
Type: biochemical
Settings: replicate R1, 2 min
Starred links: 1 amine or outer side, 2 acyl side, 3 side chain; linkers in the order of their positions; H or OH if unused. Non-standard residues stand in square brackets, D forms with d. Residues, ends and D or L forms follow the SMILES beside them. *: point of attachment. Paclitaxel(2'-OCO-DMEDA) = CC(=O)O[C@H]1C(=O)[C@@]2(C)[C@H]([C@H](OC(=O)c3ccccc3)[C@]3(O)C[C@H](OC(=O)[C@H](OC(=O)N(C)CCN(C)*)[C@@H](NC(=O)c4ccccc4)c4ccccc4)C(C)=C1C3(C)C)[C@]1(OC(C)=O)CO[C@@H]1C[C@@H]2O; Fmoc = O=C(OCC1c2ccccc2-c2ccccc21)*; PABC = O=C(OCc1ccc(N[*:1])cc1)[*:2]
measured-property: % residual compound, % R1 (%)
Answer in %, number only, no unit symbol.

% residual compound, % R1 of CC(=O)O[C@H]1C(=O)[C@@]2(C)[C@H]([C@H](OC(=O)c3ccccc3)[C@]3(O)C[C@H](OC(=O)[C@H](OC(=O)N(C)CCN(C)C(=O)OCc4ccc(NC(=O)[C@H](C)NC(=O)[C@@H](NC(=O)OCC5c6ccccc6-c6ccccc65)C(C)C)cc4)[C@@H](NC(=O)c4ccccc4)c4ccccc4)C(C)=C1C3(C)C)[C@]1(OC(C)=O)CO[C@@H]1C[C@@H]2O [Compound 4, Fmoc-VA-PABC-diamine-PTX] , assay on bovine spleen Cathepsin B (Bos taurus), is 105.08

Hey, bovine spleen Cathepsin B (Bos taurus) data for CC(=O)O[C@H]1C(=O)[C@@]2(C)[C@H]([C@H](OC(=O)c3ccccc3)[C@]3(O)C[C@H](OC(=O)[C@H](OC(=O)N(C)CCN(C)C(=O)OCc4ccc(NC(=O)[C@H](CCCNC(N)=O)NC(=O)[C@@H](NC(=O)OCC5c6ccccc6-c6ccccc65)C(C)C)cc4)[C@@H](NC(=O)c4ccccc4)c4ccccc4)C(C)=C1C3(C)C)[C@]1(OC(C)=O)CO[C@@H]1C[C@@H]2O [Compound 3, Fmoc-VCit-PABC-diamine-PTX] : % residual compound, % R1 came out at 91.44

The compound CC(=O)O[C@H]1C(=O)[C@@]2(C)[C@H]([C@H](OC(=O)c3ccccc3)[C@]3(O)C[C@H](OC(=O)[C@H](OC(=O)N(C)CCN(C)C(=O)OCc4ccc(NC(=O)CNC(=O)[C@H](CC(C)C)NC(=O)[C@H](Cc5ccccc5)NC(=O)CNC(=O)OCC5c6ccccc6-c6ccccc65)cc4)[C@@H](NC(=O)c4ccccc4)c4ccccc4)C(C)=C1C3(C)C)[C@]1(OC(C)=O)CO[C@@H]1C[C@@H]2O [Compound 2, Fmoc-GFLG-PABC-diamine-PTX] (Fmoc-GFLG[PABC]-{Paclitaxel(2'-OCO-DMEDA)}) , when measured on bovine spleen Cathepsin B (Bos taurus), yielded % residual compound, % R1 of 99.33

----------
Target: bovine spleen Cathepsin B (Bos taurus, UniProt P07688)
Construct: bovine spleen Cathepsin B (SigmaAldrich C6286, ≥10 units/mg protein); purchased SigmaAldrich C6286; host or cells: bovine spleen (tissue-derived)
Experiment: Cathepsin B cleavage assay (UHPLC-HRMS Orbitrap analysis)
Type: biochemical
Conditions: replicate R1, 30 min
Starred links: 1 amine or outer side, 2 acyl side, 3 side chain; linkers in the order of their positions; H or OH if unused. Non-standard residues stand in square brackets, D forms with d. Residues, ends and D or L forms follow the SMILES beside them. *: point of attachment. Paclitaxel(2'-OCO-DMEDA) = CC(=O)O[C@H]1C(=O)[C@@]2(C)[C@H]([C@H](OC(=O)c3ccccc3)[C@]3(O)C[C@H](OC(=O)[C@H](OC(=O)N(C)CCN(C)*)[C@@H](NC(=O)c4ccccc4)c4ccccc4)C(C)=C1C3(C)C)[C@]1(OC(C)=O)CO[C@@H]1C[C@@H]2O; Fmoc = O=C(OCC1c2ccccc2-c2ccccc21)*; PABC = O=C(OCc1ccc(N[*:1])cc1)[*:2]
measured-property: % residual compound, % R1 (%)
// return numeric value only (unit: %, not printed)

Field % residual compound, % R1 (entry CC(=O)O[C@H]1C(=O)[C@@]2(C)[C@H]([C@H](OC(=O)c3ccccc3)[C@]3(O)C[C@H](OC(=O)[C@H](OC(=O)N(C)CCN(C)C(=O)OCc4ccc(NC(=O)CNC(=O)[C@H](CC(C)C)NC(=O)[C@H](Cc5ccccc5)NC(=O)CNC(=O)OCC5c6ccccc6-c6ccccc65)cc4)[C@@H](NC(=O)c4ccccc4)c4ccccc4)C(C)=C1C3(C)C)[C@]1(OC(C)=O)CO[C@@H]1C[C@@H]2O [Compound 2, Fmoc-GFLG-PABC-diamine-PTX] (Fmoc-GFLG[PABC]-{Paclitaxel(2'-OCO-DMEDA)}) ) reads 92.26

Please fill in: % residual compound, % R1 reported for CC(=O)O[C@H]1C(=O)[C@@]2(C)[C@H]([C@H](OC(=O)c3ccccc3)[C@]3(O)C[C@H](OC(=O)[C@H](OC(=O)N(C)CCN(C)C(=O)OCc4ccc(NC(=O)[C@H](CCCNC(N)=O)NC(=O)[C@@H](NC(=O)OCC5c6ccccc6-c6ccccc65)C(C)C)cc4)[C@@H](NC(=O)c4ccccc4)c4ccccc4)C(C)=C1C3(C)C)[C@]1(OC(C)=O)CO[C@@H]1C[C@@H]2O = 70.58

molecule CC(=O)O[C@H]1C(=O)[C@@]2(C)[C@H]([C@H](OC(=O)c3ccccc3)[C@]3(O)C[C@H](OC(=O)[C@H](OC(=O)N(C)CCN(C)C(=O)OCc4ccc(NC(=O)CNC(=O)[C@H](CC(C)C)NC(=O)[C@@H]5CCCN5C(=O)CNC(=O)OCC5c6ccccc6-c6ccccc65)cc4)[C@@H](NC(=O)c4ccccc4)c4ccccc4)C(C)=C1C3(C)C)[C@]1(OC(C)=O)CO[C@@H]1C[C@@H]2O [Compound 1, Fmoc-GPLG-PABC-diamine-PTX] (Fmoc-GPLG[PABC]-{Paclitaxel(2'-OCO-DMEDA)}) , % residual compound, % R1 observed: 73.97

# % residual compound, % R1 (molecule: CC(=O)O[C@H]1C(=O)[C@@]2(C)[C@H]([C@H](OC(=O)c3ccccc3)[C@]3(O)C[C@H](OC(=O)[C@H](OC(=O)N(C)CCN(C)C(=O)OCc4ccc(NC(=O)[C@H](C)NC(=O)[C@@H](NC(=O)OCC5c6ccccc6-c6ccccc65)C(C)C)cc4)[C@@H](NC(=O)c4ccccc4)c4ccccc4)C(C)=C1C3(C)C)[C@]1(OC(C)=O)CO[C@@H]1C[C@@H]2O ) is 79.84

----------
Molecular target: bovine spleen Cathepsin B (Bos taurus, UniProt P07688)
Construct: bovine spleen Cathepsin B (SigmaAldrich C6286, ≥10 units/mg protein); purchased SigmaAldrich C6286; host or cells: bovine spleen (tissue-derived)
Assay: Cathepsin B cleavage assay (UHPLC-HRMS Orbitrap analysis)
Format: biochemical
Conditions: replicate R3, 60 min
Starred links: 1 amine or outer side, 2 acyl side, 3 side chain; linkers in the order of their positions; H or OH if unused. Non-standard residues stand in square brackets, D forms with d. Residues, ends and D or L forms follow the SMILES beside them. *: point of attachment. Paclitaxel(2'-OCO-DMEDA) = CC(=O)O[C@H]1C(=O)[C@@]2(C)[C@H]([C@H](OC(=O)c3ccccc3)[C@]3(O)C[C@H](OC(=O)[C@H](OC(=O)N(C)CCN(C)*)[C@@H](NC(=O)c4ccccc4)c4ccccc4)C(C)=C1C3(C)C)[C@]1(OC(C)=O)CO[C@@H]1C[C@@H]2O; Fmoc = O=C(OCC1c2ccccc2-c2ccccc21)*; PABC = O=C(OCc1ccc(N[*:1])cc1)[*:2]
measured-property: % residual compound, % R3 (%)
Return type: number; implicit unit %.

Record CC(=O)O[C@H]1C(=O)[C@@]2(C)[C@H]([C@H](OC(=O)c3ccccc3)[C@]3(O)C[C@H](OC(=O)[C@H](OC(=O)N(C)CCN(C)C(=O)OCc4ccc(NC(=O)CNC(=O)[C@H](CC(C)C)NC(=O)[C@H](Cc5ccccc5)NC(=O)CNC(=O)OCC5c6ccccc6-c6ccccc65)cc4)[C@@H](NC(=O)c4ccccc4)c4ccccc4)C(C)=C1C3(C)C)[C@]1(OC(C)=O)CO[C@@H]1C[C@@H]2O [Compound 2, Fmoc-GFLG-PABC-diamine-PTX] (Fmoc-GFLG[PABC]-{Paclitaxel(2'-OCO-DMEDA)}) has bovine spleen Cathepsin B (Bos taurus, UniProt P07688) % residual compound, % R3 equal to 97.64

Given the compound CC(=O)O[C@H]1C(=O)[C@@]2(C)[C@H]([C@H](OC(=O)c3ccccc3)[C@]3(O)C[C@H](OC(=O)[C@H](OC(=O)N(C)CCN(C)C(=O)OCc4ccc(NC(=O)[C@H](CCCNC(N)=O)NC(=O)[C@@H](NC(=O)OCC5c6ccccc6-c6ccccc65)C(C)C)cc4)[C@@H](NC(=O)c4ccccc4)c4ccccc4)C(C)=C1C3(C)C)[C@]1(OC(C)=O)CO[C@@H]1C[C@@H]2O and test system bovine spleen Cathepsin B (Bos taurus, UniProt P07688), the measured % residual compound, % R3 is 89.93

bovine spleen Cathepsin B (Bos taurus, UniProt P07688) data for CC(=O)O[C@H]1C(=O)[C@@]2(C)[C@H]([C@H](OC(=O)c3ccccc3)[C@]3(O)C[C@H](OC(=O)[C@H](OC(=O)N(C)CCN(C)C(=O)OCc4ccc(NC(=O)[C@H](C)NC(=O)[C@@H](NC(=O)OCC5c6ccccc6-c6ccccc65)C(C)C)cc4)[C@@H](NC(=O)c4ccccc4)c4ccccc4)C(C)=C1C3(C)C)[C@]1(OC(C)=O)CO[C@@H]1C[C@@H]2O ; its % residual compound, % R3: 75.94

Test item CC(=O)O[C@H]1C(=O)[C@@]2(C)[C@H]([C@H](OC(=O)c3ccccc3)[C@]3(O)C[C@H](OC(=O)[C@H](OC(=O)N(C)CCN(C)C(=O)OCc4ccc(NC(=O)CNC(=O)[C@H](CC(C)C)NC(=O)[C@@H]5CCCN5C(=O)CNC(=O)OCC5c6ccccc6-c6ccccc65)cc4)[C@@H](NC(=O)c4ccccc4)c4ccccc4)C(C)=C1C3(C)C)[C@]1(OC(C)=O)CO[C@@H]1C[C@@H]2O [Compound 1, Fmoc-GPLG-PABC-diamine-PTX] (Fmoc-GPLG[PABC]-{Paclitaxel(2'-OCO-DMEDA)}) ; bovine spleen Cathepsin B (Bos taurus, UniProt P07688); reported % residual compound, % R3 was 69.05
